biological target: Ac-VQIINK-NH2 (SEQ ID NO: 23) (N-terminal acetyl (Ac); C-terminal amide (NH2)); assay: cell-based or functional assay
Square brackets hold non-standard residues; d marks the D form. Ends that are not written are not given here.
Observed Property: VQIINK Inhibition IC50 (µm)

| Binder | Observed Property | Unit String | Recorded Value |
| --- | --- | --- | --- |
| [dW][dE][dL][dK][dV][dE][dW] [welkvew] | VQIINK Inhibition IC50 | µm | 11 |
| [dW][dW][dL][dR][dI][dH][dW] [wwlrihw] | VQIINK Inhibition IC50 | µm | 2.11 |
| [dF][dK][dI][dK][dL][dK][dW] [fkiklkw] | VQIINK Inhibition IC50 | µm | 1.55 |
| [dF][dK][dI][dE][dI][dE][dY][dH] [fkieieyh] | VQIINK Inhibition IC50 | µm | 4.03 |
| [dF][dH][dI][dH][dI][dK][dF][dH] [fhihikfh] | VQIINK Inhibition IC50 | µm | 1.16 |
| [dW][dE][dL][dK][dV][dR][dW] [welkvrw] | VQIINK Inhibition IC50 | µm | 0.26 |
| [dW][dQ][dL][dK][dV][dQ][dW] [wqlkvqw] | VQIINK Inhibition IC50 | µm | 2.27 |
